All values here come from the CheMixHub drug solubility set.

- test protocol: xn = mol fraction of the nth substance listed, in the solute-free solvent
- condition info: 278.15 K; x2 = 0.5454
parameter: solubility (g/100 g solution)
A bare number is all that is needed in reply.

Task: Name the recorded solubility (g/100 g solution) of the compound listed here: Nc1nc2ccc(OC(F)(F)F)cc2s1 + CCCO + O
Output: 54.6

Task: Specify reported solubility (g/100 g solution) for the compound shown: Cc1nc2n(c(=O)c1CCN1CCC(c3noc4cc(F)ccc34)CC1)CCCC2 + CC(C)O + O
Output: 4.55

Task: Find the measured solubility (g/100 g solution) of c1ccc(-c2ccc(C(c3ccccc3)n3ccnc3)cc2)cc1 (centres undefined) + CC(C)O + O and report it.
Output: 0.662

Task: Name the recorded solubility (g/100 g solution) of the compound listed here: c1ccc(-c2ccc(C(c3ccccc3)n3ccnc3)cc2)cc1 (centres undefined) + CCCO + O
Output: 0.774
